Data origin: patent US20200087373A1

- TARGET: T1, human GIP receptor (human, UniProt P48546 22-466)
- T1 sequence (looked up): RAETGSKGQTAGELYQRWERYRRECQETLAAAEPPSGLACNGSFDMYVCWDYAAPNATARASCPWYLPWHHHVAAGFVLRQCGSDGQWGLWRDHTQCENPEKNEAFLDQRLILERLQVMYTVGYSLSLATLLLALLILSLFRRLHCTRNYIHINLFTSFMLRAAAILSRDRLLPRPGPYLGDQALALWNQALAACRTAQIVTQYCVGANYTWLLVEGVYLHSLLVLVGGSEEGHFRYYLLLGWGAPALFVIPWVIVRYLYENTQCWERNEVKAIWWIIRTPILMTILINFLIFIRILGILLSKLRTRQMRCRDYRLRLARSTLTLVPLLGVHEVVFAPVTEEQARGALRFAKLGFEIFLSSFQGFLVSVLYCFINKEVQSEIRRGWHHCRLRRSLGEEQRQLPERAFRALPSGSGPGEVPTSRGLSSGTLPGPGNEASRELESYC
- PROCEDURE DETAILS: cell-based or functional assay
Ends that are not written are not given here. * marks the point of attachment. C16 diacid = O=C(O)CCCCCCCCCCCCCCC(=O)*; Stearoyl = CCCCCCCCCCCCCCCCCC(=O)*; Palmitoyl = CCCCCCCCCCCCCCCC(=O)*; Myristoyl = CCCCCCCCCCCCCC(=O)*; Lauroyl = CCCCCCCCCCCC(=O)*
Each entry below lists one item and its recorded cAMP antagonism, nM (IC50) value.
RESULT TYPE: cAMP antagonism, nM (IC50) (nM)

| BINDER | RESULT TYPE | ENDPOINT VALUE |
| --- | --- | --- |
| EGTFISDYSIAMDK(C16 diacid)IHQQDFVNWLLAQK-NH2 [AT370 [hGIP(3-30)NH2-C16diacid/16]] | cAMP antagonism, nM (IC50) | 24.9 |
| EGTFISDYSIAMDK(Lauroyl)IHQQDFVNWLLAQK-NH2 [AT154 [hGIP(3-30)NH2-C12/16]] | cAMP antagonism, nM (IC50) | 63 |
| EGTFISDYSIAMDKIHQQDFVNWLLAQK(Lauroyl)-NH2 [AT103 [hGIP(3-30)NH2-C12/30]] | cAMP antagonism, nM (IC50) | 121 |
| EGTFISDYSIAMDK(Palmitoyl)IHQQDFVNWLLAQK-NH2 [AT105 [hGIP(3-30)NH2-C16/16]] | cAMP antagonism, nM (IC50) | 24 |
| EGTKISDYSIAMDKIHQQDFVNWLLAQK (C16-diacid (1,16-hexadecanedioic acid) on Lys 6 (GIP numbering); C-terminal amide) [AT297 [hGIP(3-30)NH2[F6K]-C16diacid/6]] | cAMP antagonism, nM (IC50) | 603 |
| EGTFISDYSIAMDK(Stearoyl)IHQQDFVNWLLAQK-NH2 [AT114 [hGIP(3-30)NH2-C18/16]] | cAMP antagonism, nM (IC50) | 46 |
| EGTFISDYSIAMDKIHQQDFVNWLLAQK-NH2 [hGIP(3-30)NH2] | cAMP antagonism, nM (IC50) | 65 |
| EGTFISDYSIAMDK(Myristoyl)IHQQDFVNWLLAQK-NH2 [AT111 [hGIP(3-30)NH2-C14/16]] | cAMP antagonism, nM (IC50) | 22 |
